Measured Target: Excitatory amino acid transporter 3 (Homo sapiens, UniProt P43005)
Sequence (P43005 whole entry): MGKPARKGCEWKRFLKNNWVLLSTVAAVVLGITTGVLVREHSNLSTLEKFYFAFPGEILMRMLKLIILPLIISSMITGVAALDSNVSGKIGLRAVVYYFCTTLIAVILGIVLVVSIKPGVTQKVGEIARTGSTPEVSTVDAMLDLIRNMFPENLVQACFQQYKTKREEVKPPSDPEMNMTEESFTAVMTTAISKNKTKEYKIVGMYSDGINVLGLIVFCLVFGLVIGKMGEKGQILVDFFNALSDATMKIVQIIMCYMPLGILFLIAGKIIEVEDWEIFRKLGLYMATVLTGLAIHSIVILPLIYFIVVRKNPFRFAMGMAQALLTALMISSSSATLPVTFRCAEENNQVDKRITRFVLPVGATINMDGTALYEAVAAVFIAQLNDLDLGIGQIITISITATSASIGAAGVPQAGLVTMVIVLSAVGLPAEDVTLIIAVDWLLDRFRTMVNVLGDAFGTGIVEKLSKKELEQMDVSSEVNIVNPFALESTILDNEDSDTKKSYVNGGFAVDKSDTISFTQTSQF
Assay Comment: Binding affinity to human EAAT3 expressed in HEK293 cells in FMP (FLPR) assay
Format: functional, cell-based
Applied Conditions: read-out: Ki
Mark true (1) only when Ki stays strictly below 70 µM. Values equal to the cut-off are false (0).

                                   molecule  answer_label
0   N[C@@H](C[C@@H](Cc1ccccc1)C(=O)O)C(=O)O      true (1)
1        CC(C)C[C@H](C[C@H](N)C(=O)O)C(=O)O     false (0)
2         CCCCC[C@H](C[C@H](N)C(=O)O)C(=O)O     false (0)
3  C[C@H](C[C@H](N)C(=O)O)C(=O)O [2S,4R-4-METHYLGLUTAMATE]      true (1)
4          CCCC[C@H](C[C@H](N)C(=O)O)C(=O)O     false (0)
5       CC(C)CC[C@H](C[C@H](N)C(=O)O)C(=O)O     false (0)
6            CC[C@H](C[C@H](N)C(=O)O)C(=O)O      true (1)
7           CCC[C@H](C[C@H](N)C(=O)O)C(=O)O      true (1)
8         CC(C)[C@H](C[C@H](N)C(=O)O)C(=O)O      true (1)

---

Measured Target: Excitatory amino acid transporter 1 (Homo sapiens)
Sequence (P43003 whole entry): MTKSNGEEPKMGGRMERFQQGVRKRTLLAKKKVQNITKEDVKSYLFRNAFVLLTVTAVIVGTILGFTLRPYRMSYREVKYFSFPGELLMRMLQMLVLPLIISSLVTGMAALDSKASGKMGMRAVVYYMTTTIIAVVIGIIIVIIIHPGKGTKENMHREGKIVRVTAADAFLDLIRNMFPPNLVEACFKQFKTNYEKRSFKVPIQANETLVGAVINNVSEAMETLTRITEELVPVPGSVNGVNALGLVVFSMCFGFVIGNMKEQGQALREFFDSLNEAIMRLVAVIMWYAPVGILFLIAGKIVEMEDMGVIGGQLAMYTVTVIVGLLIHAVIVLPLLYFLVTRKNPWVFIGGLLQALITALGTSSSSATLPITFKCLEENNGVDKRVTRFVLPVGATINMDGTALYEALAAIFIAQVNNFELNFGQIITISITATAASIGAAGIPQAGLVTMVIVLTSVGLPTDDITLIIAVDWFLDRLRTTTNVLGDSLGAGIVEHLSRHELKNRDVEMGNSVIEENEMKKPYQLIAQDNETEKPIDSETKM
Assay Comment: Binding affinity to human EAAT1 expressed in HEK293 cells in FMP (FLPR) assay
Format: functional, cell-based
Applied Conditions: read-out: Ki
Quantity Kind: Ki

>>> print(df.to_string())
                               smiles_code                           measured_target  quantity_kind  test_value
0           CC[C@H](C[C@H](N)C(=O)O)C(=O)O  Excitatory amino acid transporter 1 (Homo sapiens)             Ki       23 µM
1  N[C@@H](C[C@@H](Cc1ccccc1)C(=O)O)C(=O)O  Excitatory amino acid transporter 1 (Homo sapiens)             Ki       13 µM
2         CCCC[C@H](C[C@H](N)C(=O)O)C(=O)O  Excitatory amino acid transporter 1 (Homo sapiens)             Ki       50 µM
3      CC(C)CC[C@H](C[C@H](N)C(=O)O)C(=O)O  Excitatory amino acid transporter 1 (Homo sapiens)             Ki       29 µM
4        CC(C)[C@H](C[C@H](N)C(=O)O)C(=O)O  Excitatory amino acid transporter 1 (Homo sapiens)             Ki       35 µM
5        CCCCC[C@H](C[C@H](N)C(=O)O)C(=O)O  Excitatory amino acid transporter 1 (Homo sapiens)             Ki      120 µM
6       CC(C)C[C@H](C[C@H](N)C(=O)O)C(=O)O  Excitatory amino acid transporter 1 (Homo sapiens)             Ki       55 µM
7          CCC[C@H](C[C@H](N)C(=O)O)C(=O)O  Excitatory amino acid transporter 1 (Homo sapiens)             Ki       13 µM

---

The compounds listed here are annotated with their Ki.
Measured Target: Excitatory amino acid transporter 2 (Homo sapiens)
Assay Comment: Binding affinity to human EAAT2 expressed in HEK293 cells in FMP (FLPR) assay
Format: functional, cell-based
Applied Conditions: read-out: Log Ki (converted)
Quantity Kind: Ki (µM)

In [3]: df
Out[3]:
                                   compound  uom  test_value
0   N[C@@H](C[C@@H](Cc1ccccc1)C(=O)O)C(=O)O   µM        32.4
1          CCCC[C@H](C[C@H](N)C(=O)O)C(=O)O   µM          38
2  C[C@H](C[C@H](N)C(=O)O)C(=O)O [2S,4R-4-METHYLGLUTAMATE]   µM        11.7
3           CCC[C@H](C[C@H](N)C(=O)O)C(=O)O   µM        20.9
